# target.of.assay: tau (Homo sapiens, UniProt P10636)
# Sequence (P10636 623-695 limits assumed): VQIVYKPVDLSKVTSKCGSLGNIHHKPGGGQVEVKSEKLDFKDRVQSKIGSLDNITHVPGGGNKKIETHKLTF
# method.summary: MCE Phenols Library screening, tau biosensor cell seeding assay (AvZ)
# Assay type: cell-based
# condition.info: 10 μM phenol in cell cultures, AD brain homogenate preincubated 16 hours, two biological replicates; positive = catalyzes seeding, negative = inhibits
Reported AvZ (average z score of seeding, SDs from the mean level of seeding) values are given for each entry in this list.
In your answer, state the number alone without any accompanying words.

Use the examples below as a reference point.
>  <compound>
COc1cc(CCCO)cc(OC)c1O [Dihydrosinapyl alcohol]

>  <quantitative.result>
-0.284

$$$$
>  <compound>
COC(=O)c1ccccc1O [Methyl Salicylate]

>  <quantitative.result>
-0.502

$$$$
>  <compound>
CC(=O)c1ccc(O)cc1C [4?-Hydroxy-2?-methylacetophenone]

>  <quantitative.result>
0.123

$$$$
>  <compound>
COc1cc(CO)ccc1O [Vanillyl alcohol]

>  <quantitative.result>
-0.269

$$$$
>  <compound>
NC(Cc1ccc(O)c(O)c1)C(=O)O (racemic) [DL-DOPA]

>  <quantitative.result>
1.763

$$$$

Q: Name the recorded AvZ (average z score of seeding, SDs from the mean level of seeding) for COc1cc(/C=C/C(=O)OCC[N+](C)(C)C)cc(OC)c1O [Sinapine] .
Result: -0.633

====

# target.of.assay: tau (Homo sapiens)
# method.summary: MCE Phenols Library screening, tau biosensor cell seeding assay (AvZ)
# Assay type: cell-based
# condition.info: average of raw data 1 and 2
Please assign FALSE whenever av puncta is at or above 20000, and TRUE whenever it is below.

>  <compound>
COc1cc(-c2coc3c([C@@H]4O[C@H](CO)[C@@H](O)[C@H](O)[C@H]4O)c(O)ccc3c2=O)ccc1O

>  <discrete.label>
FALSE

$$$$
>  <compound>
O=C1C[C@@H](c2ccc(O)cc2)Oc2cc(O[C@@H]3O[C@H](CO)[C@@H](O)[C@H](O)[C@H]3O)cc(O)c21

>  <discrete.label>
FALSE

$$$$
>  <compound>
COc1cc(OC)c(CCC(=O)c2ccc(O)cc2)c(OC)c1

>  <discrete.label>
FALSE

$$$$
>  <compound>
O=c1cc(-c2ccccc2)oc2c(O)c(O)cc(O)c12

>  <discrete.label>
TRUE

$$$$

Q: Is av puncta of Oc1cc(O)c2c(c1)O[C@H](c1cc(O)c(O)c(O)c1)[C@@H](O)C2 [(+)-Gallocatechin] strictly below 20000?
Result: TRUE

====

# target.of.assay: tau (Homo sapiens, UniProt P10636)
# method.summary: MCE Phenols Library screening, tau biosensor cell seeding assay (AvZ)
# Format: cell-based
# condition.info: raw puncta, replicate 1
Consider the following compounds and their measured raw data 1 readings.
Output: the number by itself.

>  <compound>
COc1cc2oc3cc(O)c(OC)c(CC=C(C)C)c3c(=O)c2c(O)c1CC=C(C)C

>  <target.of.assay>
tau (Homo sapiens, UniProt P10636)

>  <raw data 1>
23425.5

$$$$

Q: Give the measured raw data 1 of COc1cc(/C=C/C(=O)O)ccc1O .
Result: 19680.6

Q: # input compound: COc1cc(/C=C/C(=O)O[C@H]2[C@H](O)[C@@H](CO)O[C@@]2(CO)O[C@H]2O[C@H](COC(=O)c3ccc(O)cc3)[C@@H](O)[C@H](O)[C@H]2O)cc(OC)c1O [Tenuifoliside B] ; wanted: its raw data 1
Result: 19990.7

Q: Which raw data 1 is reported for this compound? CCC1(c2ccc(O)cc2)NC(=O)N(C)C1=O (stereo not shown) [4-Hydroxymephenytoin]
Result: 25375.4
